Data origin: ChEMBL document CHEMBL3885881

# Species on record: Rattus norvegicus
# Method Summary: DrugMatrix - Regimen: Daily Repeat
# Type: toxicity, organism-based, Sprague-Dawley
# Parameters: regimen Daily Repeat, gender Male, age 6-8 weeks
# Test Context: in vivo, po, 0 mg/kg, 72 h, tissue Plasma, route oral GAVAGE, dose level Control, time 3 day, vehicle 100 % WATER
Property: TOTAL BILIRUBIN (mg/dL)
Expressed in mg/dL, but write only the number.

{"Compound": "CCN(CC)C(=S)SSC(=S)N(CC)CC", "Reading Unit": "mg/dL", "TOTAL BILIRUBIN": 0.17}

compound NN [HYDRAZINE] , TOTAL BILIRUBIN observed: 0.18

In plain terms, CCC1(c2ccccc2)C(=O)NC(=O)NC1=O [PHENOBARBITAL] has a documented TOTAL BILIRUBIN of 0.18

According to the records, this compound CC(Cl)(Cl)Cl [TRICHLOROETHANE] displays TOTAL BILIRUBIN of 0.15

Reported TOTAL BILIRUBIN for CN1C(=O)OC(C)(C)C1=O [TRIMETHADIONE] was 1.13

// C1CCN2C[C@@H]3C[C@@H](CN4CCCC[C@@H]34)[C@H]2C1 [SPARTEINE] : TOTAL BILIRUBIN value = 0.15

----------
# Organism: Rattus norvegicus
# Method Summary: DrugMatrix - Regimen: Daily Repeat
# Format: toxicity, organism-based, Sprague-Dawley
# Design: regimen Daily Repeat, gender Male, age 6-8 weeks
# Test Context: in vivo, po, 0 mg/kg, 72 h, tissue Blood, route oral GAVAGE, dose level Control, time 3 day, […]
Some compounds, each annotated with its measured MONOCYTE.
Entry rule: numbers only, all in %.

{"Compound": "O=C(O)COC(=O)Cc1ccccc1Nc1c(Cl)cccc1Cl", "MONOCYTE, %": 1}

So for `CCOC(=O)C1=C(C)NC(C)=C(C(=O)OCC)C1c1ccccc1/C=C/C(=O)OC(C)(C)C` , the logged MONOCYTE turned out to be 0.67

The reported value for O=C(Nc1ccc(Cl)c(Cl)c1)c1cc(Cl)cc(Cl)c1O [3,3',4',5-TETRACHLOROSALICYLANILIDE] in terms of MONOCYTE is 1.5

Memo: `CC#C[C@]1(O)CC[C@H]2[C@@H]3CCC4=CC(=O)CCC4=C3[C@@H](c3ccc(N(C)C)cc3)C[C@@]21C` , reported MONOCYTE: 0.17

----------
# Organism: Rattus norvegicus
# Method Summary: DrugMatrix - Regimen: Daily Repeat
# Assay type: toxicity, organism-based, Sprague-Dawley
# Parameters: regimen Daily Repeat, gender Male, age 6-8 weeks
# Test Context: in vivo, po, 0 mg/kg, 72 h, tissue Plasma, route oral GAVAGE, dose level Control, time 3 day, […]
Property: CREATININE (mg/dL)
// return numeric value only (unit: mg/dL, not printed)

Answered examples (3):
{"Compound": "O=C(O)COC(=O)Cc1ccccc1Nc1c(Cl)cccc1Cl", "CREATININE [mg/dL]": 0.16}
{"Compound": "COc1ccccc1OCCNCC(O)COc1cccc2[nH]c3ccccc3c12 (centres undefined)", "CREATININE [mg/dL]": 0.16}
{"Compound": "c1ccc2c(c1)Nc1ccccc1S2", "CREATININE [mg/dL]": 0.13}

Here's the next entry for you.
Input `CS(=O)(=O)c1ccc(C2=C(c3ccccc3)C(=O)OC2)cc1` . Output CREATININE: 0.13

----------
# Organism: Rattus norvegicus
# Method Summary: DrugMatrix - Regimen: Daily Repeat
# Assay type: toxicity, organism-based, Sprague-Dawley
# Parameters: regimen Daily Repeat, gender Male, age 6-8 weeks
# Test Context: in vivo, po, 0 mg/kg, 120 h, tissue Blood, route oral GAVAGE, dose level Control, time 5 day, […]
Property: HEMOGLOBIN (G/DL)
Your answer is read as G/DL, so omit the unit and give the number.

Worked examples, 5 compounds total:
{"Compound": "Oc1ncnc2[nH]ncc12 [ALLOPURINOL]", "Reading Unit": "G/DL", "Test Result": 13.42}
{"Compound": "CC#C[C@]1(O)CC[C@H]2[C@@H]3CCC4=CC(=O)CCC4=C3[C@@H](c3ccc(N(C)C)cc3)C[C@@]21C [MIFEPRISTONE]", "Reading Unit": "G/DL", "Test Result": 13.02}
{"Compound": "CO[C@H]1O[C@@H]2O[C@@]3(C)CC[C@H]4[C@H](C)CC[C@@H]([C@H]1C)[C@@]24OO3", "Reading Unit": "G/DL", "Test Result": 13.37}
{"Compound": "CC(C)(c1ccc(O)cc1)c1ccc(O)cc1 [BISPHENOL A]", "Reading Unit": "G/DL", "Test Result": 13.48}
{"Compound": "c1ccc2c(c1)Nc1ccccc1S2 [PHENOTHIAZINE]", "Reading Unit": "G/DL", "Test Result": 13.5}

HEMOGLOBIN measured on CS(=O)(=O)c1ccc(C2=C(c3ccccc3)C(=O)OC2)cc1 [ROFECOXIB] = 13.5

The compound identified as COc1ccccc1OCCNCC(O)COc1cccc2[nH]c3ccccc3c12 (stereo not drawn) [CARVEDILOL] registered its HEMOGLOBIN at 13.85

Record CCC(C)(C)C(=O)O[C@H]1C[C@@H](C)C=C2C=C[C@H](C)[C@H](CC[C@@H]3C[C@@H](O)CC(=O)O3)[C@H]21 [SIMVASTATIN] , field HEMOGLOBIN: 13.02

----------
# Organism: Rattus norvegicus
# Method Summary: DrugMatrix - Regimen: Daily Repeat
# Assay type: toxicity, organism-based, Sprague-Dawley
# Set-up: regimen Daily Repeat, gender Male, age 6-8 weeks
# Test Context: in vivo, po, 0 mg/kg, 120 h, tissue Plasma, route oral GAVAGE, dose level Control, time 5 day, […]
# GLUCOSE per entry
State just the number; it will be interpreted in mg/dL.

Take a look at these entries with their results.
{"Compound": "COc1ccccc1OCCNCC(O)COc1cccc2[nH]c3ccccc3c12 (centres undefined)", "GLUCOSE, mg/dL": 162.83}
{"Compound": "c1ccc2c(c1)Nc1ccccc1S2", "GLUCOSE, mg/dL": 171.33}
{"Compound": "O=C(O)COC(=O)Cc1ccccc1Nc1c(Cl)cccc1Cl", "GLUCOSE, mg/dL": 162.83}

The record that follows has no GLUCOSE shown yet.
Sample `CCOC(=O)C1=C(C)NC(C)=C(C(=O)OCC)C1c1ccccc1/C=C/C(=O)OC(C)(C)C` ; GLUCOSE observed: 157.5

----------
# Organism: Rattus norvegicus
# Method Summary: DrugMatrix - Regimen: Daily Repeat
# Type: toxicity, organism-based, Sprague-Dawley
# Design: regimen Daily Repeat, gender Male, age 6-8 weeks
# Test Context: in vivo, po, 0 mg/kg, 72 h, tissue Plasma, route oral GAVAGE, dose level Control, time 3 day, vehicle .5 % CMC
Property: CHOLESTEROL (mg/dL)
Please state the figure in mg/dL; there is no need to write the unit.

Example entries and their recorded answers appear below.
{"Compound": "NC(=O)CN1CCCC1=O", "Test Result": 70}
{"Compound": "CCN1CCCC1CNC(=O)c1cc(S(N)(=O)=O)ccc1OC (stereo not drawn) [SULPIRIDE]", "Test Result": 71.17}

// next item, CHOLESTEROL requested
The reported CHOLESTEROL of the compound COc1ccc(Cl)cc1C(=O)NCCc1ccc(S(=O)(=O)NC(=O)NC2CCCCC2)cc1 [GLYBURIDE] was 64.33

----------
# Species: Rattus norvegicus
# Method Summary: DrugMatrix - Regimen: Daily Repeat
# Type: toxicity, organism-based, Sprague-Dawley
# Design: regimen Daily Repeat, gender Male, age 6-8 weeks
# Test Context: in vivo, po, 1500 mg/kg, 120 h, tissue Plasma, route oral GAVAGE, dose level High, time 5 day, vehicle .5 % CMC
ALBUMIN overview
State just the number; it will be interpreted in G/DL.

Solved cases (4 shown):
{"Compound": "O=C(O)CCc1nc(-c2ccccc2)c(-c2ccccc2)o1 [OXAPROZIN]", "ALBUMIN, G/DL": 4.57}
{"Compound": "CC[C@H]1OC(=O)[C@H](C)[C@@H](O[C@H]2C[C@@](C)(OC)[C@@H](O)[C@H](C)O2)[C@H](C)[C@@H](O[C@@H]2O[C@H](C)C[C@H](N(C)C)[C@H]2O)[C@](C)(O)C[C@@H](C)C(=O)[C@H](C)[C@@H](O)[C@]1(C)O [ERYTHROMYCIN]", "ALBUMIN, G/DL": 3.7}
{"Compound": "Cc1ccc(S(=O)(=O)NC(=O)NN2CCCCCC2)cc1 [TOLAZAMIDE]", "ALBUMIN, G/DL": 4.7}
{"Compound": "COc1cc(/C=C/C(=O)O)ccc1O [FERULATE]", "ALBUMIN, G/DL": 4.57}

Given item COc1ccc(Cl)cc1C(=O)NCCc1ccc(S(=O)(=O)NC(=O)NC2CCCCC2)cc1 [GLYBURIDE] , the value recorded as its ALBUMIN is 3.67
